assay: in vivo; set-up: species or system mice; conditions: male, SCID, mouse, iv, 730 kBq, total radioactivity, Biodistribution, AsPC-1 Tumor
Residues, ends and D or L forms follow the SMILES beside them. *: point of attachment. DOTA = O=C(O)CN1CCN(CC(=O)O)CCN(CC(=O)*)CCN(CC(=O)O)CC1; X1 = Cc1ccc(CCCC(=O)NCCOCCOCCOCCOCC(=O)*)cc1; βAla = NCCC(=O)O
Endpoint label: tissue uptake at 72 h (%ID/g)
Could you give me the number in %ID/g? Just the number is fine.

Record CC[C@H](C)[C@H](NC(=O)[C@H](Cc1ccc(O)cc1)NC(=O)[C@@H]1CCCN1C(=O)[C@H](CCCNC(=N)N)NC(=O)[C@H](CCCNC(=N)N)NC(=O)[C@H](CCCCNC(=O)COCCOCCOCCOCCNC(=O)CCCc1ccc(C)cc1)NC(=O)CCNC(=O)CCNC(=O)CCNC(=O)CN1CCN(CC(=O)O)CCN(CC(=O)O)CCN(CC(=O)O)CC1)C(=O)N[C@@H](CC(C)C)C(=O)O [[^177Lu]Lu-DT14D, metal not drawn] ({DOTA-βAla-βAla-βAla}-K(X1)RRPYIL-OH) . Reported tissue uptake at 72 h: 1.24
